# System: Staphylococcus aureus ATCC 10537
# test-name: Antibacterial activity, MIC
# Assay type: cell-based
# condition-description: ATCC10537, ATCC 10537, agar two-fold dilution, 37° C., 20 hours, read-out: MIC
# note: boundary value 2 mg/L maps to no; MIC below it maps to yes

compound: C=CC[n+]1c(N)cc(N)nc1SCC1=C(C(=O)[O-])N2C(=O)C(NC(=O)/C(=N\OCC)c3nsc(N)n3)C2SC1 (stereo not drawn) [Compound I-23]
assigned-class: yes

compound: CCC[n+]1c(N)cc(N)nc1SCC1=C(C(=O)[O-])N2C(=O)C(NC(=O)/C(=N\OC(C)(C)C(=O)O)c3nsc(N)n3)C2SC1 (stereo not drawn) [Compound I-28]
assigned-class: no

compound: CC(C)(O/N=C(\C(=O)NC1C(=O)N2C(C(=O)[O-])=C(CSc3nc(N)cc(N)[n+]3C3CC3)CSC12)c1csc(N)n1)C(=O)O (stereo not drawn) [Compound I-48]
assigned-class: no

compound: CC[n+]1c(N)cc(N)nc1SCC1=C(C(=O)[O-])N2C(=O)C(NC(=O)/C(=N\OC(C)(C)C(=O)O)c3nsc(N)n3)C2SC1 (stereo not drawn) [Compound I-27]
assigned-class: no

compound: CCO/N=C(\C(=O)NC1C(=O)N2C(C(=O)[O-])=C(CSc3nc(N)cc(N)[n+]3C)CSC12)c1nsc(N)n1 (stereo not drawn) [Compound I-20]
assigned-class: yes

compound: CCO/N=C(\C(=O)NC1C(=O)N2C(C(=O)[O-])=C(CSc3nc(N)cc(N)[n+]3N)CSC12)c1csc(N)n1 (stereo not drawn) [Compound I-16]
assigned-class: yes

compound: CC[n+]1c(N)cc(N)nc1SCC1=C(C(=O)[O-])N2C(=O)C(NC(=O)/C(=N\OC)c3nsc(N)n3)C2SC1 (stereo not drawn) [Compound I-25]
assigned-class: yes

###

# test-name: In-vivo absorbency (plasma concentrations & pharmacokinetic parameters)
# Parameters: species or system SD rat (male)
# condition-description: plasma; 20 min; SD male rat, iv 20 mg/kg; read-out: Plasma Conc.
Entries and their concentration at 20 min values follow.

compound: CC(C)(O/N=C(\C(=O)NC1C(=O)N2C(C(=O)[O-])=C(CSc3nc(N)cc(N)[n+]3N)CS[C@H]12)c1csc(N)n1)C(=O)O (stereo partly drawn) [Compound I-15]
concentration at 20 min (µg/mL): 22

compound: CCc1c(N)nc(SCC2=C(C(=O)[O-])N3C(=O)C(NC(=O)/C(=N\OC(C)(C)C(=O)O)c4csc(N)n4)C3SC2)[n+](C)c1N (stereo not drawn) [Compound I-31]
concentration at 20 min (µg/mL): 30

compound: CCC[n+]1c(N)cc(N)nc1SCC1=C(C(=O)[O-])N2C(=O)C(NC(=O)/C(=N\OC(C)C(=O)O)c3csc(N)n3)C2SC1 (stereo not drawn) [Compound I-45]
concentration at 20 min (µg/mL): 29

compound: C[n+]1c(N)cc(N)nc1SCC1=C(C(=O)[O-])N2C(=O)C(NC(=O)/C(=N\OCC(=O)O)c3csc(N)n3)C2SC1 (stereo not drawn) [Compound I-7]
concentration at 20 min (µg/mL): 29

compound: CC[n+]1c(N)cc(N)nc1SCC1=C(C(=O)[O-])N2C(=O)C(NC(=O)/C(=N\OC(C)(C)C(=O)O)c3csc(N)n3)C2SC1 (stereo not drawn) [Compound I-2]
concentration at 20 min (µg/mL): 7.3

compound: CC(O/N=C(\C(=O)NC1C(=O)N2C(C(=O)[O-])=C(CSc3nc(N)cc(N)[n+]3C)CSC12)c1csc(N)n1)C(=O)O (stereo not drawn) [Compound I-4]
concentration at 20 min (µg/mL): 7.3

###

# Test system: Pseudomonas aeruginosa ATCC 27853
# test-name: Antibacterial activity, MIC
# Format: cell-based
# condition-description: ATCC27853, ATCC 27853, agar two-fold dilution, 37° C., 20 hours, read-out: MIC

molecule: C#CCO/N=C(\C(=O)NC1C(=O)N2C(C(=O)[O-])=C(CSc3nc(N)cc(N)[n+]3N)CSC12)c1csc(N)n1 (stereo not shown)
MIC [µg/mL]: 2
//
molecule: CCO/N=C(\C(=O)NC1C(=O)N2C(C(=O)[O-])=C(CSc3nc(N)cc(N)[n+]3N)CSC12)c1nsc(N)n1 (stereo not shown)
MIC [µg/mL]: 2
//
molecule: CCCC[n+]1c(N)cc(N)nc1SCC1=C(C(=O)[O-])N2C(=O)C(NC(=O)/C(=N\OC(C)(C)C(=O)O)c3nsc(N)n3)C2SC1 (stereo not shown)
MIC [µg/mL]: 2
//
molecule: C=CCO/N=C(\C(=O)NC1C(=O)N2C(C(=O)[O-])=C(CSc3nc(N)cc(N)[n+]3C)CSC12)c1csc(N)n1 (stereo not shown)
MIC [µg/mL]: 8
//
molecule: CC[n+]1c(N)cc(N)nc1SCC1=C(C(=O)[O-])N2C(=O)C(NC(=O)/C(=N\OC)c3nsc(N)n3)C2SC1 (stereo not shown)
MIC [µg/mL]: 4
//
molecule: CC(O/N=C(\C(=O)NC1C(=O)N2C(C(=O)[O-])=C(CSc3nc(N)cc(N)[n+]3N)CSC12)c1csc(N)n1)C(=O)O (stereo not shown)
MIC [µg/mL]: 1
//
molecule: CO/N=C(\C(=O)NC1C(=O)N2C(C(=O)[O-])=C(CSc3nc(N)cc(N)[n+]3C)CSC12)c1nsc(N)n1 (stereo not shown)
MIC [µg/mL]: 4
//
molecule: CCO/N=C(\C(=O)NC1C(=O)N2C(C(=O)[O-])=C(CSc3nc(N)cc(N)[n+]3-c3ccc(Cl)cc3)CSC12)c1csc(N)n1 (stereo not shown)
MIC [µg/mL]: 8
//
molecule: C[n+]1c(N)cc(N)nc1SCC1=C(C(=O)[O-])N2C(=O)C(NC(=O)/C(=N\OC(C)(C)C(=O)O)c3csc(N)n3)[C@H]2SC1 (stereo partly shown)
MIC [µg/mL]: 1
//
molecule: CC(O/N=C(\C(=O)NC1C(=O)N2C(C(=O)[O-])=C(CSc3nc(N)cc(N)[n+]3C)CSC12)c1csc(N)n1)C(=O)O (stereo not shown)
MIC [µg/mL]: 1

###

# Tested on: Staphylococcus aureus ATCC 10537
# test-name: Antibacterial activity, MIC
# Assay type: cell-based
# condition-description: ATCC10537, ATCC 10537, agar two-fold dilution, 37° C., 20 hours, read-out: MIC
Entries and their MIC values follow.
readout-kind: MIC (µg/mL)

compound: C=CCO/N=C(\C(=O)NC1C(=O)N2C(C(=O)[O-])=C(CSc3nc(N)cc(N)[n+]3C)CSC12)c1csc(N)n1 (centres unmarked) [Compound I-49]
readout-kind: MIC
value-measured: 0.25
--
compound: CCO/N=C(\C(=O)NC1C(=O)N2C(C(=O)[O-])=C(CSc3nc(N)cc(N)[n+]3CC)CSC12)c1csc(N)n1 (centres unmarked) [Compound I-12]
readout-kind: MIC
value-measured: 0.25
--
compound: CO/N=C(\C(=O)NC1C(=O)N2C(C(=O)[O-])=C(CSc3nc(N)cc(N)[n+]3N)CSC12)c1csc(N)n1 (centres unmarked) [Compound I-19]
readout-kind: MIC
value-measured: 0.5
--
compound: CCc1c(N)nc(SCC2=C(C(=O)[O-])N3C(=O)C(NC(=O)/C(=N\OC(C)(C)C(=O)O)c4csc(N)n4)C3SC2)[n+](C)c1N (centres unmarked) [Compound I-31]
readout-kind: MIC
value-measured: 4
--
compound: CC[n+]1c(N)cc(N)nc1SCC1=C(C(=O)[O-])N2C(=O)C(NC(=O)/C(=N\OC(C)C(=O)O)c3csc(N)n3)C2SC1 (centres unmarked) [Compound I-5]
readout-kind: MIC
value-measured: 2
--
compound: C[n+]1c(N)cc(N)nc1SCC1=C(C(=O)[O-])N2C(=O)C(NC(=O)/C(=N\OC(C)(C)C(=O)O)c3csc(N)n3)[C@H]2SC1 (some centres unmarked) [Compound I-1]
readout-kind: MIC
value-measured: 1
--
compound: CC[n+]1c(N)cc(N)nc1SCC1=C(C(=O)[O-])N2C(=O)C(NC(=O)/C(=N\OCC(=O)O)c3csc(N)n3)C2SC1 (centres unmarked) [Compound I-8]
readout-kind: MIC
value-measured: 2
--
compound: CC(O/N=C(\C(=O)NC1C(=O)N2C(C(=O)[O-])=C(CSc3nc(N)cc(N)[n+]3N)CSC12)c1csc(N)n1)C(=O)O (centres unmarked) [Compound I-14]
readout-kind: MIC
value-measured: 2
--
compound: CCO/N=C(\C(=O)NC1C(=O)N2C(C(=O)[O-])=C(CSc3nc(N)cc(N)[n+]3-c3ccc(Cl)cc3)CSC12)c1csc(N)n1 (centres unmarked) [Compound I-40]
readout-kind: MIC
value-measured: 0.25
--
compound: C#CCO/N=C(\C(=O)NC1C(=O)N2C(C(=O)[O-])=C(CSc3nc(N)cc(N)[n+]3C)CSC12)c1csc(N)n1 (centres unmarked) [Compound I-46]
readout-kind: MIC
value-measured: 0.13
--
compound: CCO/N=C(\C(=O)NC1C(=O)N2C(C(=O)[O-])=C(CSc3nc(N)cc(N)[n+]3N)CSC12)c1nsc(N)n1 (centres unmarked) [Compound I-17]
readout-kind: MIC
value-measured: 0.5
--
compound: CC(O/N=C(\C(=O)NC1C(=O)N2C(C(=O)[O-])=C(CSc3nc(N)cc(N)[n+]3C)CSC12)c1csc(N)n1)C(=O)O (centres unmarked) [Compound I-4]
readout-kind: MIC
value-measured: 2
--
compound: C[n+]1c(N)cc(N)nc1SCC1=C(C(=O)[O-])N2C(=O)C(NC(=O)/C(=N\OCC(=O)O)c3csc(N)n3)C2SC1 (centres unmarked) [Compound I-7]
readout-kind: MIC
value-measured: 2
--
compound: CC(C)(O/N=C(\C(=O)NC1C(=O)N2C(C(=O)[O-])=C(CSc3nc(N)cc(N)[n+]3-c3ccc(O)cc3)CSC12)c1csc(N)n1)C(=O)O (centres unmarked) [Compound I-36]
readout-kind: MIC
value-measured: 2
--
compound: C=CCO/N=C(\C(=O)NC1C(=O)N2C(C(=O)[O-])=C(CSc3nc(N)cc(N)[n+]3CC)CSC12)c1csc(N)n1 (centres unmarked) [Compound I-50]
readout-kind: MIC
value-measured: 0.13
--
compound: C#CCO/N=C(\C(=O)NC1C(=O)N2C(C(=O)[O-])=C(CSc3nc(N)cc(N)[n+]3CC)CSC12)c1csc(N)n1 (centres unmarked) [Compound I-47]
readout-kind: MIC
value-measured: 0.13
--
compound: CCc1c(N)nc(SCC2=C(C(=O)[O-])N3C(=O)C(NC(=O)/C(=N\OC(C)(C)C(=O)O)c4csc(N)n4)C3SC2)[n+](CC)c1N (centres unmarked) [Compound I-33]
readout-kind: MIC
value-measured: 4
--
compound: CCC[n+]1c(N)cc(N)nc1SCC1=C(C(=O)[O-])N2C(=O)C(NC(=O)/C(=N\OCC)c3nsc(N)n3)C2SC1 (centres unmarked) [Compound I-22]
readout-kind: MIC
value-measured: 0.5
--
compound: CO/N=C(\C(=O)NC1C(=O)N2C(C(=O)[O-])=C(CSc3nc(N)cc(N)[n+]3C)CSC12)c1nsc(N)n1 (centres unmarked) [Compound I-24]
readout-kind: MIC
value-measured: 0.5
--
compound: CCO/N=C(\C(=O)NC1C(=O)N2C(C(=O)[O-])=C(CSc3nc(N)cc(N)[n+]3C)CSC12)c1csc(N)n1 (centres unmarked) [Compound I-11]
readout-kind: MIC
value-measured: 0.25
--
compound: CCO/N=C(\C(=O)NC1C(=O)N2C(C(=O)[O-])=C(CSc3nc(N)cc(N)[n+]3CC)CSC12)c1nsc(N)n1 (centres unmarked) [Compound I-21]
readout-kind: MIC
value-measured: 0.25
--
compound: C[n+]1c(N)cc(N)nc1SCC1=C(C(=O)[O-])N2C(=O)C(NC(=O)/C(=N\OC(C)(C)C(=O)O)c3nsc(N)n3)C2SC1 (centres unmarked) [Compound I-26]
readout-kind: MIC
value-measured: 8
--
compound: CC[n+]1c(SCC2=C(C(=O)[O-])N3C(=O)C(NC(=O)/C(=N\OC(C)(C)C(=O)O)c4csc(N)n4)C3SC2)nc(N)c(C)c1N (centres unmarked) [Compound I-32]
readout-kind: MIC
value-measured: 2

These measurements were taken from patent US5202315A.
